# System: Candida albicans
# assay-method-text: Antifungal activity against Candida albicans MTCC 2827 at 0.5 mg/ml after 72 hrs by well plate method
# Type: functional
# measurement-setup: MTCC 2827, 72 h, read-out: DIZ
Rule: satisfied for zone of inhibition at 500 µg/mL not less than 3 mm, not satisfied for anything less.

[in] Determine whether measured zone of inhibition at 500 µg/mL meets or exceeds 3 mm for OC(Cn1cncn1)(Cn1cncn1)c1ccc(F)cc1F
[out] satisfied

[in] Kindly determine if zone of inhibition at 500 µg/mL recorded for COc1cc(C2CC(c3cc4ccccc4o3)=NN2)ccc1O (stereo not given) is above or exactly 3 mm.
[out] not satisfied

[in] Please tell me: is the compound COc1cc(C2CC(c3cc4ccccc4o3)=NN2C(=O)Nc2ccc(O)cc2)ccc1O (stereo not given) at or over 3 mm in terms of zone of inhibition at 500 µg/mL?
[out] not satisfied

[in] Could you verify whether the entry COc1cc(NC(=O)N2N=C(c3cc4ccccc4o3)CC2c2ccc(O)c(OC)c2)ccc1O (stereo not given) shows zone of inhibition at 500 µg/mL of no less than 3 mm?
[out] not satisfied

[in] // inclusive: zone of inhibition at 500 µg/mL at least 3 mm? input: COc1cc(C2CC(c3cc4ccccc4o3)=NN2C(=O)Nc2ccc(F)cc2)ccc1O (stereo not given)
[out] satisfied

[in] Would you say COc1cc(C2CC(c3cc4ccccc4o3)=NN2C(=O)Nc2ccc(Br)cc2)ccc1O (stereo not given) shows zone of inhibition at 500 µg/mL at minimum 3 mm?
[out] satisfied

[in] Identify whether the reported zone of inhibition at 500 µg/mL of the following compound is 3 mm or greater: COc1cc(C2CC(c3cc4ccccc4o3)=NN2C(=O)Nc2ccc(C)cc2)ccc1O (stereo not given)
[out] not satisfied
